I'd appreciate it if you could supply pIC50 values for the items below.
Target: VEGFR2, unphosphorylated (Homo sapiens (Human), UniProt P35968)
Sequence (P35968 whole entry, looked up): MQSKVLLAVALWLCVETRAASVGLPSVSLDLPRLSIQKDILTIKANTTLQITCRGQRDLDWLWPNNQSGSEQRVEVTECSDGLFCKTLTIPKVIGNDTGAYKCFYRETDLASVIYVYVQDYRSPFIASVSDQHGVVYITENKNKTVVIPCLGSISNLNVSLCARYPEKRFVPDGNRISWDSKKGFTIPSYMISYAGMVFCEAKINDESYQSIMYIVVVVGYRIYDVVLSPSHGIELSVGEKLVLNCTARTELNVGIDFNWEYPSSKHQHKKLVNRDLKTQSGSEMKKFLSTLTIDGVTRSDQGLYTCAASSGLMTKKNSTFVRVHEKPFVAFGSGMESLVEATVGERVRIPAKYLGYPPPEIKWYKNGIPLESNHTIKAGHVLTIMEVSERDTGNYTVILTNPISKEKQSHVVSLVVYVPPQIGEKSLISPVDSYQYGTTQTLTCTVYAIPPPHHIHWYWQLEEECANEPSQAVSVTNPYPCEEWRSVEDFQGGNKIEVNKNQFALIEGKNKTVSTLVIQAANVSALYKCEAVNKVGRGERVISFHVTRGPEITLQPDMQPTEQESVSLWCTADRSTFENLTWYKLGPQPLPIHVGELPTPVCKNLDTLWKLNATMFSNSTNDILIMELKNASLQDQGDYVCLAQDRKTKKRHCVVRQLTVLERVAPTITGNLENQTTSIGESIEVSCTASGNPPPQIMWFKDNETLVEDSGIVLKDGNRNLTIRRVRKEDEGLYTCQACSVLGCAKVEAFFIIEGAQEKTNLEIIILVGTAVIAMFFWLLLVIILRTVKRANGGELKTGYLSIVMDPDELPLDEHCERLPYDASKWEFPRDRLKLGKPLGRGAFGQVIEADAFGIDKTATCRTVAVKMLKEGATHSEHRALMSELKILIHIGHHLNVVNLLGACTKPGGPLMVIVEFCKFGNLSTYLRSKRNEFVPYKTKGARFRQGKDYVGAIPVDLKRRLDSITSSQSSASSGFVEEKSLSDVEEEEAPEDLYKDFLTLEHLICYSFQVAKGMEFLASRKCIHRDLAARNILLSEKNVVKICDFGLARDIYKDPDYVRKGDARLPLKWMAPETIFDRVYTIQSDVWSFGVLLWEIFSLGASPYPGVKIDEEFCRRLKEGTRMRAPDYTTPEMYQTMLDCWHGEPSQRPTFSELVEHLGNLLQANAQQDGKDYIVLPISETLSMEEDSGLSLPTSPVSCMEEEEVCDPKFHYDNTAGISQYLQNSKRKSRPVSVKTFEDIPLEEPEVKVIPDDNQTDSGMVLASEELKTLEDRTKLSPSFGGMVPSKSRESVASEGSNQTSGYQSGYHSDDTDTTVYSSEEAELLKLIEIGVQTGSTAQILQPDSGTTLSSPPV
Experiment: VEGFR ADP GLO assay
Conditions: 5 nM VEGFR2, 1.2 mM ATP, 1 mg/mL Srctide, 180 min
Method: Assay buffer stock contains 50 mM HEPES pH7.5, 10 mM MgCl2, 0.01% Brij-35, and 1 mM EGTA. Unphosphorylated VEGFR2. 52.6 μM in 50 mM Tris-HCl, pH 8.0, 50 mM NaCl, 5% Glycerol, 0.5 mM TCEP. Store at −80° C. in aliquots. 10 mg/mL srctide solution, prepared in Assay buffer (Assay buffer stock with 2 mM DTT, 0.1% Pluronic F-127, and 0.1 mg/mL ovalbumin). […] Step 5. […] Centrifuge at 1000 rpm for 1 min; Incubate at room temperature for 1 hour; Read Luminescence on a plate reader. […]
pIC50: −log10 of the molar value.

Known results for compounds:
Cn1cc(Nc2ncc3c(Nc4cc(C(=O)NCCN5CC(C)(C)C5)ccc4F)nn(C)c3n2)cn1 | < 5.12
COCCCN(CCNC(=O)c1cnc(C)c(Nc2nn(C)c3nc(Nc4cnn(C)c4)ncc23)c1)C1CCC1 | < 5.12
Cc1ncc(C(=O)NCCN2CCCC2(C)C)cc1Nc1nn(C)c2nc(Nc3ccncc3)ncc12 | ~5.04
CC(=O)Nc1cc(Nc2ncc3c(Nc4cc(C(=O)NCCN5CCCC5(C)C)cnc4C)nn(C)c3n2)ccn1 | 5.27
Cc1ncc(C(=O)NCCN2CCCC[C@H]2C)cc1Nc1nn(C)c2nc(Nc3cncnc3)ncc12 | ~5.18
Cc1cc(Nc2ncc3c(Nc4cc(C(=O)NCCN5CCC[C@@H]5C)cnc4C)nn(C)c3n2)n(C)n1 | < 5.12

Please examine the following record next.
get_value(item= Cc1ncc(C(=O)NCCN2CCCC2(C)C)cc1Nc1nn(C)c2nc(Nc3cncc(C(=O)O)c3)ncc12 , readout=pIC50) returns < 5.00

---

target: PDGFRβ (Rattus norvegicus (Rat)); experiment: PDGFRβ Cellular Assay (PDGFRb P-Y751 HTRF, PDGF-BB stimulated A10 cells); type: cell-based; details: A10 cells, 3 hours compound, 15 ng/mL PDGFbb for 10 minutes; read-out: PDGFR Cellular IC50
Sequence (Q05030 whole entry, looked up): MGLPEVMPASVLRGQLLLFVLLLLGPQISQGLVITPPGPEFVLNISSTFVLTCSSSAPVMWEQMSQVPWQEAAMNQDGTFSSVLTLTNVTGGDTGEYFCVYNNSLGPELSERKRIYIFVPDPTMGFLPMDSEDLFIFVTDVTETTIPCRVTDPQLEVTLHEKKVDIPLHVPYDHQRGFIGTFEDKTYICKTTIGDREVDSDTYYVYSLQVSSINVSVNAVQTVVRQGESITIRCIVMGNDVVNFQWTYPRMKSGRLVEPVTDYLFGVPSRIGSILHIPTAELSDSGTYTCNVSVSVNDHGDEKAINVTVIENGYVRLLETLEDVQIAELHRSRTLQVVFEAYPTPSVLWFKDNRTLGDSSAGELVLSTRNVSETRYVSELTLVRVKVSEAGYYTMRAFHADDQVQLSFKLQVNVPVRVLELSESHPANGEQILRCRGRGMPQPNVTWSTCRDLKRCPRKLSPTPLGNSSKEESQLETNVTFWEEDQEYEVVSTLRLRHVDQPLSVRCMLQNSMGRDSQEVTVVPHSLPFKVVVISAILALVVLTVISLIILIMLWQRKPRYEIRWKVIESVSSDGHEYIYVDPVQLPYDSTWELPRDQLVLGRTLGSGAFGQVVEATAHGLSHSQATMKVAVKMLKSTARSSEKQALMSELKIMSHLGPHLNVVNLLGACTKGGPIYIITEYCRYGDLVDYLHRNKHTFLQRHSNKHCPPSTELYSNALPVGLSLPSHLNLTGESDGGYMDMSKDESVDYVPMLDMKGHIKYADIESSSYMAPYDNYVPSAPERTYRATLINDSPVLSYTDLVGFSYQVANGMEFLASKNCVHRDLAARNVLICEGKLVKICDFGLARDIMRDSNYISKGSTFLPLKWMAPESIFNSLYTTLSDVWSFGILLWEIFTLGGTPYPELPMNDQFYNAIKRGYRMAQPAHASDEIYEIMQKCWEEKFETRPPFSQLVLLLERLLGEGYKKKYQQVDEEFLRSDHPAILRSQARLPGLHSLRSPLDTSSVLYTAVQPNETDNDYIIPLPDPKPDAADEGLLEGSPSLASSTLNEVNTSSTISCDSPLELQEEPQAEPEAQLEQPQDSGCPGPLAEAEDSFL
I'd appreciate it if you could supply pIC50 values for the items below.
Give bare numbers, as −log10 of the molar value.

Known results for compounds:
Cc1ncc(C(=O)NCCN2C3CCCC2CCC3)cc1Nc1nn(C)c2nc(Nc3cnn(C)c3)ncc12 | 7.48
Cc1ncc(NC(=O)CN2C[C@H](C)O[C@@H](C)C2)cc1Nc1nn(C)c2nc(Nc3cnn(C)c3)ncc12 (relative stereo) | 8.28
Cc1ncc(NC(=O)CN2CCC(F)(F)C2)cc1Nc1nn(C)c2nc(Nc3cnn(C)c3)ncc12 | 8.31

Item Cc1ncc(C(=O)NCCN2CCCC2(C)C)cc1Nc1nn(C)c2nc(Nc3cncnc3)ncc12 ; assay system PDGFRβ (Rattus norvegicus (Rat)); pIC50 reported as 7.51

---

target: VEGFR2, unphosphorylated (Homo sapiens (Human)); test: VEGFR ADP GLO assay; conditions: 5 nM VEGFR2, 1.2 mM ATP, 1 mg/mL Srctide, 180 min
pIC50: −log10 of the molar value.
The threshold is inclusive: pIC50 of exactly 6 counts as Criterion met; values below receive Criterion not met.

Below, 5 molecules whose answers are already recorded.
Cc1ncc(C(=O)NCCN(C)C2CCOCC2)cc1Nc1nn(C)c2nc(Nc3cncnc3)ncc12 | Criterion not met
Cc1ncc(C(=O)NCCN2CCCC2(C)C)cc1Nc1nn(C)c2nc(Nc3cccnc3)ncc12 | Criterion not met
COC1CCN(CCNC(=O)c2cnc(C)c(Nc3nn(C)c4nc(Nc5cnn(C)c5)ncc34)c2)CC1 | Criterion not met
COCCn1cc(Nc2ncc3c(Nc4cc(NC(=O)CN5CC(C)(C)C5)cnc4C)nn(C)c3n2)cn1 | Criterion not met
Cc1ncc(C(=O)NCCN2CCCC23CCC3)cc1Nc1nn(C)c2nc(Nc3cnn(C)c3)ncc12 | Criterion not met

Query: Is pIC50 at least 6? Consider Cc1ncc(C(=O)NCCN2C3CCCC2CCC3)cc1Nc1nn(C)c2nc(Nc3cnn(C)c3)ncc12
Result: Criterion not met

Query: Is pIC50 at least 6? Consider Cc1ncc(C(=O)NCCN2CCCC2(C)C)cc1Nc1nn(C)c2nc(Nc3cnn(C)n3)ncc12
Result: Criterion not met

Query: Is pIC50 at least 6? Consider Cc1ncc(C(=O)NCCN2CCC3(CC3)C2)cc1Nc1nn(C)c2nc(Nc3cncnc3)ncc12
Result: Criterion not met

Query: Is pIC50 at least 6? Consider Cc1ncc(C(=O)NCCC2CCCCC2)cc1Nc1nn(C)c2nc(Nc3ccc(N4CCNCC4)nc3)ncc12
Result: Criterion met

Query: Is pIC50 at least 6? Consider Cc1ncc(C(=O)NCCN2CCCC2(C)C)cc1Nc1nn(C)c2cc(Nc3cnn(C)c3)ncc12
Result: Criterion not met

Query: Is pIC50 at least 6? Consider Cc1ncc(NC(=O)CN2CCC[C@@H]2C)cc1Nc1nn(C)c2nc(Nc3cnn(C4COC4)c3)ncc12
Result: Criterion not met

Query: Is pIC50 at least 6? Consider Cc1nn(C)cc1Nc1ncc2c(Nc3cc(C(=O)NCCN4CCC(C)(C)C4)cnc3C)nn(C)c2n1
Result: Criterion not met

Query: Is pIC50 at least 6? Consider Cn1cc(Nc2ncc3c(Nc4cc(C(=O)NCCN5CCC(F)(F)CC5)ccc4F)nn(C)c3n2)cn1
Result: Criterion met

All values here come from patent US20240360134A1.
